Where these numbers come from: patent US20110064740A1

target: T1, human Aβ peptide (length not stated) (human, UniProt P05067 672-711)
T1 construct: also called β-amyloid in solution
T1 sequence (P05067 672-711): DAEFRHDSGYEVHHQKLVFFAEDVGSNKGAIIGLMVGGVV
measurement-protocol: competition ELISA, β-amyloid in solution pre-incubated with the antibody; competitor: immobilised mouse 2E7; Experiment 1

binder | measure-unit | IC50
Humanised 2E7 variant H3L1 (antibody, human IgG1, kappa, V domains shown, Human IgG1 with L235A and G237A, human kappa; also called L1+H3) VH: EVQLVESGGGLVQPGGSLRLSCAASGFTFSDNGMAWVRQAPGKGLEWISFISNLAYSIDYADTVTGRFTISRDNAKNSLYLQMNSLRAEDTAVYYCVSGTWFAYWGQGTLVTVSS VL: DIVMTQSPLSLPVTPGEPASISCRVSQSLLHSNGYTYLHWYLQKPGQSPQLLIYKVSNRFSGVPDRFSGSGSGTDFTLKISRVEAEDVGVYYCSQTRHVPYTFGGGTKVEIKR | µg/mL | 0.069
